target: PTPN2 (B16F10.4 cells) (Mus musculus, UniProt Q06180); construct: HiBiT; host or cells: B16F10.4; assay: HiBiT Degradation B16F10.4 PTPN2; format: cell-based; conditions: 24.0 hours
Sequence (Q06180 whole entry): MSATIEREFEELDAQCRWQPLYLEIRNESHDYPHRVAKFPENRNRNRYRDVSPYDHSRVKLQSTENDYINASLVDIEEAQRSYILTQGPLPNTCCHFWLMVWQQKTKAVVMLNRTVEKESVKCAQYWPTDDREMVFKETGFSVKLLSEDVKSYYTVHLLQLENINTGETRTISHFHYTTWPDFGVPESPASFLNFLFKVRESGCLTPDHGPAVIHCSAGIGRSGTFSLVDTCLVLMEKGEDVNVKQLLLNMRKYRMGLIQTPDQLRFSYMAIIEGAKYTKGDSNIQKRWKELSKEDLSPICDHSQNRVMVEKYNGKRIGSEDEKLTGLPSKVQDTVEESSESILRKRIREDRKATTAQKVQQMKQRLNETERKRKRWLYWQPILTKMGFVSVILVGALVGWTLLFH
Answer each item with its documented DC50.

# input Under PTPN2 (B16F10.4 cells) (Mus musculus, UniProt Q06180): DC50 value of O=C(O)COc1c(C(=O)O)sc(-c2cccc(N[C@@H]3CCN(S(=O)(=O)Cc4cccc(NC(=O)N5CCC(c6ccc7c8c(cccc68)C(=O)N7C6CCC(=O)NC6=O)CC5)c4)C4(CC4)C3)c2)c1Cl (stereo partly drawn) ?
# output < 50 nM

# input Same thing, different compound: CC1(C)C[C@H](Oc2cccc(-c3sc(C(=O)O)c(OCC(=O)O)c3Cl)c2)CCN1S(=O)(=O)Cc1cccc(NC(=O)N2CCC(c3ccc4c5c(cccc35)C(=O)N4C3CCC(=O)NC3=O)CC2)c1 (stereo partly drawn)
# output 50 to 200 nM

# input Same thing, different compound: CC1(C)C[C@H](Nc2cccc(-c3sc(C(=O)O)c(OCC(=O)O)c3Cl)c2)CCN1S(=O)(=O)Cc1cccc(NC(=O)N2CCC(c3ccc4c(C5CCC(=O)NC5=O)cnn4c3)CC2)c1 (stereo partly drawn)
# output 200 to 1000 nM

# input Same thing, different compound: Cn1c(=O)n(C2CCC(=O)NC2=O)c2ccc(OC3CCN(C(=O)Nc4cccc(CS(=O)(=O)N5CC[C@H](Nc6cccc(-c7sc(C(=O)O)c(OCC(=O)O)c7Cl)c6)CC5(C)C)c4)CC3)cc21 (stereo partly drawn)
# output 50 to 200 nM

# input Same thing, different compound: Cn1c(=O)n(C2CCC(=O)NC2=O)c2ccc([C@H]3CN(C(=O)Nc4cccc(CS(=O)(=O)N5CC[C@H](Nc6cccc(-c7sc(C(=O)O)c(OCC(=O)O)c7Cl)c6)CC5(C)C)c4)CC[C@@H]3F)cc21 (stereo partly drawn)
# output 50 to 200 nM

# input Same thing, different compound: Cn1c(=O)n(C2CCC(=O)NC2=O)c2ccc(C3CCCN(C(=O)Nc4cccc(CS(=O)(=O)N5CC[C@H](Nc6cccc(-c7sc(C(=O)O)c(OCC(=O)O)c7Cl)c6)CC5(C)C)c4)C3)cc21 (stereo partly drawn)
# output 50 to 200 nM

# input Same thing, different compound: CC1(C)C[C@@H](Nc2cccc(-c3sc(C(=O)O)c(OCC(=O)O)c3Cl)c2)CCN1S(=O)(=O)Cc1cccc(NC(=O)N2CCC[C@@H](c3ccc4c5c(cccc35)N(C3CCC(=O)NC3=O)C4=O)CC2)c1 (stereo partly drawn)
# output 50 to 200 nM

# input Same thing, different compound: CC1(C)C[C@@H](Nc2cccc(-c3sc(C(=O)O)c(OCC(=O)O)c3Cl)c2)CCN1S(=O)(=O)Cc1cccc(NC(=O)CCC(=O)NCc2ccc3c4c(cccc24)C(=O)N3C2CCC(=O)NC2=O)c1 (stereo partly drawn)
# output 50 to 200 nM

# input Same thing, different compound: CC1(C)C[C@@H](Nc2cccc(-c3sc(C(=O)O)c(OCC(=O)O)c3Cl)c2)CCN1S(=O)(=O)Cc1cccc(NC(=O)CCCCCn2cc(CNc3cccc4c3C(=O)N(C3CCC(=O)NC3=O)C4=O)nn2)c1 (stereo partly drawn)
# output 200 to 1000 nM

# input Same thing, different compound: CC1(C)C[C@@H](Nc2cccc(-c3sc(C(=O)O)c(OCC(=O)O)c3Cl)c2)CCN1S(=O)(=O)Cc1cccc(NC(=O)NCCCc2cc3c4c(cccc4c2)N(C2CCC(=O)NC2=O)C3=O)c1 (stereo partly drawn)
# output 200 to 1000 nM

Go through the items and report each one's DC50.
1. Cn1c(=O)n(C2CCC(=O)NC2=O)c2ccc(C3CCN(CC(=O)Nc4cccc(CS(=O)(=O)N5CCC(Nc6cccc(-c7sc(C(=O)O)c(OCC(=O)O)c7Cl)c6)CC5)c4)CC3)cc21 (stereo not drawn)
2. O=C(O)COc1c(C(=O)O)sc(-c2cccc(N[C@H]3CCN(S(=O)(=O)Cc4cccc(NC(=O)N5CCC(c6ccc7c8c(cccc68)C(=O)N7C6CCC(=O)NC6=O)CC5)c4)C4(CC4)C3)c2)c1Cl (stereo partly drawn)
3. Cn1c(=O)n(C2CCC(=O)NC2=O)c2ccc(C3CCN(C(=O)Nc4cccc(CS(=O)(=O)N5CCC(Nc6cc(-c7sc(C(=O)O)c(OCC(=O)O)c7Cl)ccc6F)CC5)c4)CC3)cc21 (stereo not drawn)
4. CC(C)n1c(=O)n(C2CCC(=O)NC2=O)c2ccc(C3CCN(CC(=O)Nc4cccc(CS(=O)(=O)N5CC[C@H](Nc6cccc(-c7sc(C(=O)O)c(OCC(=O)O)c7Cl)c6)CC5(C)C)c4)CC3(F)F)cc21 (stereo partly drawn)

# output
1. 50 to 200 nM
2. < 50 nM
3. 50 to 200 nM
4. 50 to 200 nM
